Test system: Nuclear hormone receptor DAF-12 (Strongyloides stercoralis)
test: S. stercoralis DAF-12 nuclear receptor activators, primary screen, cell-based, luminescence, HEK293, GRIP1 co-expression, lit1-tk-luc (AID 652126);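 also: 0% = DMSO-only wells and 100% = 3 µM delta7-dafachronic acid wells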
condition-description: HEK293 ssDAF-12/GRIP1 lit1-tk-luc reporter, at 6.8 µM, hits give high values, % of 3 µM dafachronic acid response
In all, about 370,000 compounds went through this assay and about 3,700 (1%) were called active. For the sample, actives were picked, then their nearest neighbours and some compounds at random.
readout: activation (%)
Hi! Could you send only the number? It should be in %, unit omitted.

Challenge: Hi! What's the reported activation for CN(C)c1ccc(NC(=O)NC2CCCCN(Cc3ccc(Cl)cc3)C2=O)cc1 (stereo not drawn) on Nuclear hormone receptor DAF-12 (Strongyloides stercoralis)?
Response given: -1.57

Challenge: Hi! What's the reported activation for O=C(Cn1c(-c2ccc(Cl)cc2)noc1=O)N1CCN(c2ccccc2F)CC1 on Nuclear hormone receptor DAF-12 (Strongyloides stercoralis)?
Response given: -0.84

Shift focus to the following entry.
Challenge: Hi! What's the reported activation for Cc1[nH]nc(-c2ccc(OCc3cnn(-c4ccccc4)c3)cc2O)c1Oc1ccc(Cl)cc1 on Nuclear hormone receptor DAF-12 (Strongyloides stercoralis)?
Response given: -0.99

###

Tested on: Nuclear hormone receptor DAF-12 (Strongyloides stercoralis)
test: S. stercoralis DAF-12 nuclear receptor activators, primary screen, cell-based, luminescence, HEK293, GRIP1 co-expression, lit1-tk-luc (AID 652126);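 also: 0% = DMSO-only wells and 100% = 3 µM delta7-dafachronic acid wells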
condition-description: HEK293 ssDAF-12/GRIP1 lit1-tk-luc reporter, at 6.8 µM, hits give high values, % of 3 µM dafachronic acid response
Screen size: about 370,000 compounds; about 3,700 (1%) were called active. The sample holds actives, similar compounds and a random draw of the others, so the mix is not that of the screen.
readout: activation (%)
Hi! Could you send only the number? It should be in %, unit omitted.

Challenge: I would be grateful if you could share the reported activation for Cc1ccc(OCc2nnc(SC/C=C/c3ccccc3)n2Cc2ccco2)cc1 .
Response given: -1.7

Challenge: I would be grateful if you could share the reported activation for CCOC(=O)N1CCC(N2Cc3cccc(C(=O)Nc4ccc(S(=O)(=O)N(CC)CC)cc4)c3C2=O)CC1 .
Response given: -1.26

Others:
Challenge: I would be grateful if you could share the reported activation for O=C(Nc1ccn(Cc2ccccc2)n1)c1n[nH]c([N+](=O)[O-])c1Cl .
Response given: 1.07

Challenge: I would be grateful if you could share the reported activation for O=C(CCn1nnc2ccccc2c1=O)N[C@@H](Cc1c[nH]c2ccccc12)C(=O)O .
Response given: -1.08

Challenge: I would be grateful if you could share the reported activation for O=C(O)C1C2C=CC(O2)C1C(=O)Nc1ccccn1 (stereo not given) .
Response given: -1.12

Challenge: I would be grateful if you could share the reported activation for CC(CCN1CCC(C(O)(c2ccccc2)c2ccccc2)CC1)Oc1ccc([N+](=O)[O-])cc1Cl (stereo not given) .
Response given: -0.24

Challenge: I would be grateful if you could share the reported activation for CCOC(=O)c1c(N)sc2c1CCCC2=O .
Response given: 1.3

Challenge: I would be grateful if you could share the reported activation for O=C(CCS(=O)(=O)c1ccccc1)Nc1ccc(Cl)c(Cl)c1 .
Response given: -1.34

Challenge: I would be grateful if you could share the reported activation for Cc1ccc(-n2c(SCC(=O)Nc3ccc(S(=O)(=O)Nc4nccs4)cc3)nnc2-c2ccncc2)cc1 .
Response given: -1.76

Hey, just so you know, these numbers are from PubChem BioAssay AID652126.
